Listed compounds paired with reported CC50 at 7 days
method.summary: In vitro cytotoxicity, MTT cell viability assay in HepG2 cells
Format: cell-based
condition.context: human, Cytotoxicity CC50

Data point: Cn1ccc(C(=O)Nc2ccc(F)c(Cl)c2)c1C(F)(F)C(=O)NC1(C#N)CC1 ; CC50 at 7 days = > 30 µM

Data point: Cc1cc(NC(=O)c2cc(C(F)(F)C(=O)NC(C)C)n(C)c2)ccc1F ; CC50 at 7 days = > 30 µM

Data point: Cc1cc(NC(=O)c2ccc(F)c(C(F)(F)C(=O)N3[C@@H]4COC[C@H]3CN(S(C)(=O)=O)C4)c2)ccc1F ; CC50 at 7 days = > 30 µM

Data point: O=C(Nc1ccc(F)c(Cl)c1)c1ccc(F)c(C(F)(F)C(=O)N2CCC(O)(CO)CC2)c1 ; CC50 at 7 days = 5 to 30 µM

Data point: Cc1cc(NC(=O)c2ccc(F)c(C(F)(F)C(=O)N3[C@@H]4CNC[C@H]3COC4)c2)ccc1F ; CC50 at 7 days = 5 to 30 µM

Data point: Cc1cc(NC(=O)c2ccc([C@@H](O)CO)c(C(F)(F)C(=O)N3CCC(O)CC3)c2)ccc1F ; CC50 at 7 days = > 30 µM

Data point: CC(=O)N[C@@H]1C[C@H]2CC[C@@H](C1)N2C(=O)C(F)(F)c1cc(C(=O)Nc2ccc(F)c(C)c2)ccc1F ; CC50 at 7 days = 5 to 30 µM

Data point: Cn1cc(NC(=O)c2ccc(F)c(C(F)(F)C(=O)N3CCC(O)(CO)CC3)c2)cn1 ; CC50 at 7 days = > 30 µM

Data point: O=C(Nc1cc(F)c(F)c(F)c1)c1ccc(F)c(C(F)(F)C(=O)N2CCC(O)(CO)CC2)c1 ; CC50 at 7 days = 5 to 30 µM

Reference source for all entries: patent US11247965B2
